test system: L1210 mouse leukemia cells transformed with the pHaMDR1/A retrovirus carrying a MDR1 cDNA; assay: cells; type: cell-based; details: Date 5/12/95; IC50 Dox / IC50 Dox+Inhibitor; 2.5 μM compound
// NB: equality with 7 counts as -1; only MDR Ratio strictly below is 1

Example entries begin here.
>>> discrete_label("CC/C=C(/c1cccnc1)c1cccc([C@H](CCCc2ccccc2)OC(=O)[C@@H]2CCCCN2C(=O)C(=O)c2cc(OC)c(OC)c(OC)c2)c1 [Compound 28]")
-1
>>> discrete_label("C=CCC/C=C(/c1cccnc1)c1ccc(C(CCN2CCOCC2)OC(=O)[C@@H]2CCCCN2C(=O)C(=O)C(C)(C)C(C)C)s1 (some centres unmarked) [Compound 90]")
-1
>>> discrete_label("CCC/C=C(/c1cccnc1)c1cccc([C@@H](CCN2CCOCC2)OC(=O)[C@@H]2CCCCN2C(=O)C(=O)c2cc(OC)c(OC)c(OC)c2)c1 [Compound 26]")
-1
>>> discrete_label("C=CCC/C=C(\\c1ccc(C(CCN2CCOCC2)OC(=O)[C@@H]2CCCCN2C(=O)C(=O)C(C)(C)C(C)C)s1)C1CCOCC1 (some centres unmarked) [Compound 91]")
1
>>> discrete_label("CCOCc1cccc(COCC)c1-c1cncc([C@H](CCN2CCOCC2)OC(=O)[C@@H]2CCCCN2C(=O)C(=O)C2(C)CCCCC2)c1 [Compound 76]")
1
>>> discrete_label("CCOCc1cc2ccccc2n1-c1cccc([C@@H](OC(=O)[C@@H]2CCCCN2C(=O)C(=O)c2ccco2)/C(C)=C/[C@H]2CC[C@H](O)CC2)c1 [Compound 43]")
-1

## Input Identify whether the molecule CCCc1ccc(CCC)n1-c1cccc([C@@H](CCN2CCOCC2)OC(=O)[C@@H]2CCCCN2C(=O)C(=O)[C@@H]2C[C@H](C(C)(C)OC)CC=C2C)c1 [Compound 107] records MDR Ratio below 7.
## Output -1

## Input # TODO verify MDR Ratio < 7 strictly for this molecule: CCOCc1cccc(COCC)c1-c1csc([C@H](CCN2CCOCC2)OC(=O)[C@@H]2CCCCN2C(=O)C(=O)C2CCOCC2)c1 [Compound 61]
## Output 1

## Input Regarding CCCCc1ccc(C)n1-c1cccc([C@@H](CCN2CCOCC2)OC(=O)[C@@H]2CCCCN2C(=O)C(=O)[C@@H]2C[C@H](C(C)(C)OC)CC[C@H]2C)c1 [Compound 112] , kindly confirm whether its MDR Ratio is beneath 7.
## Output -1
